These data points were gathered from ChEMBL document CHEMBL1138144.

measurement_kind: pKi
A value of pKi is the negative decimal logarithm of a concentration given in moles per litre.

Item CCC(C(=O)c1ccc(Cl)c(Cl)c1)N1CCCC1 (configuration not stated) with Sodium-dependent serotonin transporter (Homo sapiens, UniProt P31645) - pKi? 6.09

Item CCCC(C(=O)c1ccc(Br)cc1)N1CCCC1 (configuration not stated) with Sodium-dependent serotonin transporter (Homo sapiens, UniProt P31645) - pKi? 6.08

Item CCCC(C(=O)c1ccc(-c2cccs2)cc1)N1CCCC1 (configuration not stated) with Sodium-dependent serotonin transporter (Homo sapiens, UniProt P31645) - pKi? 5.48

Item CCCC(C(=O)c1ccc(-c2ccco2)cc1)N1CCCC1 (configuration not stated) with Sodium-dependent serotonin transporter (Homo sapiens, UniProt P31645) - pKi? 5.48

Item CCCC(C(=O)c1ccc(I)cc1)N1CCCC1 (configuration not stated) with Sodium-dependent serotonin transporter (Homo sapiens, UniProt P31645) - pKi? 6.52

Item C=CCC(C(=O)c1ccc(Cl)c(Cl)c1)N1CCCC1 (configuration not stated) with Sodium-dependent serotonin transporter (Homo sapiens, UniProt P31645) - pKi? 5.97

Item CCCC(C(=O)c1cccc(C)c1)N1CCCC1 (configuration not stated) with Sodium-dependent serotonin transporter (Homo sapiens, UniProt P31645) - pKi? 5.23

Item CCCC(C(=O)c1ccc(C(F)(F)F)cc1)N1CCCC1 (configuration not stated) with Sodium-dependent serotonin transporter (Homo sapiens, UniProt P31645) - pKi? 6.02

Item CCC[C@@H](C(=O)c1ccc(C)cc1)N1CCCC1 with Sodium-dependent serotonin transporter (Homo sapiens, UniProt P31645) - pKi? 5.65

###

target_under_test: Sodium-dependent noradrenaline transporter (Homo sapiens, UniProt P23975)
Sequence (P23975 whole entry): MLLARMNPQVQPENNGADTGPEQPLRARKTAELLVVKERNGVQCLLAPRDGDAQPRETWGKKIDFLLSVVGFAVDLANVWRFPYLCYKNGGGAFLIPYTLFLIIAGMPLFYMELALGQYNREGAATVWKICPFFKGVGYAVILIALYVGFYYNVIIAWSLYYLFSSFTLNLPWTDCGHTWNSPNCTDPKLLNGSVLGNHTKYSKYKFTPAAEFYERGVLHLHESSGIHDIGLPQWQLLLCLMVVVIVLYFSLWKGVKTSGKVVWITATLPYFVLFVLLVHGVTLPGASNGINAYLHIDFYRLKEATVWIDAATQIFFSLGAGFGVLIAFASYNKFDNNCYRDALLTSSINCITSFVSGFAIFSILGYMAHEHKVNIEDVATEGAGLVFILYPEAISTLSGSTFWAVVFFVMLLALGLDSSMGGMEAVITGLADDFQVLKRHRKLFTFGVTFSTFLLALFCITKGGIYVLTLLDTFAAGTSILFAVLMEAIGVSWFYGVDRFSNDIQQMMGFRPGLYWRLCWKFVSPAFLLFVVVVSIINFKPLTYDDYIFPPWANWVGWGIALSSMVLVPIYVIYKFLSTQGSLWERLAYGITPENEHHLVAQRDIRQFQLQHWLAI
assay_remarks: Inhibition of [3H] norepinephrine uptake into human NET expressed in HEK293 cells
Provide the recorded IC50 for the entries that follow.
Could you give me the number in nM? Just the number is fine.

Dear colleague, I am looking for the recorded IC50 of the following molecule: CCCC(C(=O)c1ccc(O)c(O)c1)N1CCCC1 (configuration not stated) 7.6

Dear colleague, I am looking for the recorded IC50 of the following molecule: CCC[C@@H](C(=O)c1ccc(C)cc1)N1CCCC1 11.3

Dear colleague, I am looking for the recorded IC50 of the following molecule: CCCC(C(=O)c1ccc(OC)cc1)N1CCCC1 (configuration not stated) 235

Dear colleague, I am looking for the recorded IC50 of the following molecule: CCCC(C(=O)c1ccc(NC(C)=O)cc1)N1CCCC1 (configuration not stated) 317

Dear colleague, I am looking for the recorded IC50 of the following molecule: Cc1ccc(C(=O)C(CC(C)C)N2CCCC2)cc1 (configuration not stated) 18

Dear colleague, I am looking for the recorded IC50 of the following molecule: CCCC(C(=O)c1ccc(I)cc1)N1CCCC1 (configuration not stated) 46.5

Dear colleague, I am looking for the recorded IC50 of the following molecule: C#CCC(C(=O)c1ccc(C)cc1)N1CCCC1 (configuration not stated) 350

Dear colleague, I am looking for the recorded IC50 of the following molecule: CCCC(C(=O)c1ccc(Cl)c(Cl)c1)N1CCCCC1 (configuration not stated) 800

Dear colleague, I am looking for the recorded IC50 of the following molecule: CCCC(C(=O)c1ccc2ccccc2c1)N1CCCC1 (configuration not stated) 11.7

Dear colleague, I am looking for the recorded IC50 of the following molecule: CCCCNC(CCC)C(=O)c1ccc(Cl)c(Cl)c1 (configuration not stated) 2520

Dear colleague, I am looking for the recorded IC50 of the following molecule: CCCC(C(=O)c1ccc(Cl)c(Cl)c1)N1CCCC1 (configuration not stated) 21

Dear colleague, I am looking for the recorded IC50 of the following molecule: CCCC(C(=O)c1ccc(F)cc1)N1CCCC1 (configuration not stated) 171

Dear colleague, I am looking for the recorded IC50 of the following molecule: C=CCC(C(=O)c1ccc(Cl)c(Cl)c1)N1CCCC1 (configuration not stated) 24.9

Dear colleague, I am looking for the recorded IC50 of the following molecule: CCCC(C(=O)c1ccc(CO)cc1)N1CCCC1 (configuration not stated) 12.4

Dear colleague, I am looking for the recorded IC50 of the following molecule: C=CCC(C(=O)c1ccc(C)cc1)N1CCCC1 (configuration not stated) 88

Dear colleague, I am looking for the recorded IC50 of the following molecule: CCC(C(=O)c1ccc(Cl)c(Cl)c1)N1CCCC1 (configuration not stated) 18.5

Dear colleague, I am looking for the recorded IC50 of the following molecule: CCCC(C(=O)c1cccc(C)c1)N1CCCC1 (configuration not stated) 9.4

Dear colleague, I am looking for the recorded IC50 of the following molecule: CCCC(C(=O)c1ccc(Br)cc1)N1CCCC1 (configuration not stated) 83

Dear colleague, I am looking for the recorded IC50 of the following molecule: CCCC(C(=O)c1ccccc1)N1CCCC1 (configuration not stated) 56

Dear colleague, I am looking for the recorded IC50 of the following molecule: CCCC(C(=O)c1ccc(-c2cccs2)cc1)N1CCCC1 (configuration not stated) 263

Dear colleague, I am looking for the recorded IC50 of the following molecule: CCCC(C(=O)c1ccc(-c2ccco2)cc1)N1CCCC1 (configuration not stated) 93

Dear colleague, I am looking for the recorded IC50 of the following molecule: CCCC(C(=O)c1cccc(I)c1)N1CCCC1 (configuration not stated) 81

Dear colleague, I am looking for the recorded IC50 of the following molecule: CCCC(C(=O)c1ccc(C)cc1)N1CCCC1 (configuration not stated) [PYROVALERONE] 28.3

Dear colleague, I am looking for the recorded IC50 of the following molecule: CC#Cc1ccc(C(=O)C(CCC)N2CCCC2)cc1 (configuration not stated) 19.3

Dear colleague, I am looking for the recorded IC50 of the following molecule: CCCC(C(=O)c1ccc(O)cc1)N1CCCC1 (configuration not stated) 86.7

Dear colleague, I am looking for the recorded IC50 of the following molecule: CCCC(C(=O)c1ccc([N+](=O)[O-])cc1)N1CCCC1 (configuration not stated) 531

Dear colleague, I am looking for the recorded IC50 of the following molecule: CCCC(C(=O)c1ccccc1C)N1CCCC1 (configuration not stated) 19.7

###

Provide the recorded Ki for the entries that follow.
Could you give me the number in nM? Just the number is fine.

Item CCCC(C(=O)c1ccc(C#N)cc1)N1CCCC1 (configuration not stated) with Sodium-dependent dopamine transporter (Homo sapiens) - Ki? 5900

Item CCCC(C(=O)c1ccccc1)N1CCCC1 (configuration not stated) with Sodium-dependent dopamine transporter (Homo sapiens) - Ki? 33.7

Item CCCC(C(=O)c1ccc(-c2cccn2C)cc1)N1CCCC1 (configuration not stated) with Sodium-dependent dopamine transporter (Homo sapiens) - Ki? 3850

Item CCCC(C(=O)c1ccc(OC)cc1)N1CCCC1 (configuration not stated) with Sodium-dependent dopamine transporter (Homo sapiens) - Ki? 329

Item CCCC(C(=O)c1ccc(O)c(O)c1)N1CCCC1 (configuration not stated) with Sodium-dependent dopamine transporter (Homo sapiens) - Ki? 84

###

Below are compounds with their Ki as measured on UniProt:Q01959.
Could you give me the number in nM? Just the number is fine.

Dear colleague, I am looking for the recorded Ki of the following compound: CC#Cc1ccc(C(=O)C(CCC)N2CCCC2)cc1 (stereo not given) 61

Dear colleague, I am looking for the recorded Ki of the following compound: CCCC(C(=O)c1ccc(F)cc1)N1CCCC1 (stereo not given) 82

Dear colleague, I am looking for the recorded Ki of the following compound: CCCC(C(=O)c1ccc([N+](=O)[O-])cc1)N1CCCC1 (stereo not given) 266

Dear colleague, I am looking for the recorded Ki of the following compound: CCCCNC(CCC)C(=O)c1ccc(Cl)c(Cl)c1 (stereo not given) 520

Dear colleague, I am looking for the recorded Ki of the following compound: CCCC(C(=O)c1ccc(Br)cc1)N1CCCC1 (stereo not given) 51

Dear colleague, I am looking for the recorded Ki of the following compound: CCCC(C(=O)c1ccc(I)cc1)N1CCCC1 (stereo not given) 81.4

Dear colleague, I am looking for the recorded Ki of the following compound: CCCC(C(=O)c1ccc(O)cc1)N1CCCC1 (stereo not given) 125

Dear colleague, I am looking for the recorded Ki of the following compound: C#CCC(C(=O)c1ccc(C)cc1)N1CCCC1 (stereo not given) 2310

Dear colleague, I am looking for the recorded Ki of the following compound: C=CCC(C(=O)c1ccc(C)cc1)N1CCCC1 (stereo not given) 90.5

###

target_under_test: Sodium-dependent dopamine transporter (Homo sapiens)
Sequence (Q01959 whole entry): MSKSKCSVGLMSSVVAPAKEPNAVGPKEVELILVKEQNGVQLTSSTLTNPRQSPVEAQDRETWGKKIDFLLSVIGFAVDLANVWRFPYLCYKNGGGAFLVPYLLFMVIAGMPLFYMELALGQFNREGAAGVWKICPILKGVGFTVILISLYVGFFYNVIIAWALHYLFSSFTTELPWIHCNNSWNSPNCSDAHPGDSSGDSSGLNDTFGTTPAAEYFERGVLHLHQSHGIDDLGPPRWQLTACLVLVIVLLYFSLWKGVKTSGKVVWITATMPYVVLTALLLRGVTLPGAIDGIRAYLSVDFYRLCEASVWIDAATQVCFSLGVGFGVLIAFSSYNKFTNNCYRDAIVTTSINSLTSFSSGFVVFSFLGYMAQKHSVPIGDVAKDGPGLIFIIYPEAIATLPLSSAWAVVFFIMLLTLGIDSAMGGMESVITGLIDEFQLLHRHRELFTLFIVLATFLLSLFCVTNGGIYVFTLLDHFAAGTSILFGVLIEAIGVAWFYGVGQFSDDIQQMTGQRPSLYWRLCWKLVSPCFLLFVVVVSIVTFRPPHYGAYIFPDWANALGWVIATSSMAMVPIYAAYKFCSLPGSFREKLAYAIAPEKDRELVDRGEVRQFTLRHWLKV
assay_remarks: Inhibition of [3H] dopamine uptake into human DAT expressed in HEK293 cells
measurement_kind: pIC50
A value of pIC50 is the negative decimal logarithm of a concentration given in moles per litre.

Dear colleague, I am looking for the recorded pIC50 of the following compound: CCCC(C(=O)c1ccc(NC(C)=O)cc1)N1CCCC1 (stereo not drawn) 7.17

Dear colleague, I am looking for the recorded pIC50 of the following compound: CCCC(C(=O)c1ccc(-c2ccco2)cc1)N1CCCC1 (stereo not drawn) 6.91

Dear colleague, I am looking for the recorded pIC50 of the following compound: CCCC(C(=O)c1ccc(C(=O)OC)cc1)N1CCCC1 (stereo not drawn) 6.81
